conditions: buffer; pH 7.4; 200.0 µM
Property Label: solubility kinetic

> print(dat)
                                  compound      property.label  recorded.result
1  CCCN(Cc1ccco1)S(=O)(=O)c1ccc(OC)c(OC)c1  solubility kinetic       41.3 µg/mL

Please report solubility kinetic for every entry that follows.
1. CCOc1ccc(NC(=O)[C@@H](NC(=O)c2ccco2)C(C)C)cc1
2. CC(=O)N(c1cccc(Br)c1)c1nc(C)cc(C)c1C#N
3. O=C(O)c1cccc(Nc2c([N+](=O)[O-])c(=O)oc3ccccc23)c1
4. O=C(CNC(=O)c1ccccc1)OCC(=O)c1cccs1

Result:
["> 49.6 µg/mL", "> 51.6 µg/mL", "> 48.9 µg/mL", "> 45.5 µg/mL"]
